- measured.on: UniProtKB P43116
- Sequence (P43116 whole entry): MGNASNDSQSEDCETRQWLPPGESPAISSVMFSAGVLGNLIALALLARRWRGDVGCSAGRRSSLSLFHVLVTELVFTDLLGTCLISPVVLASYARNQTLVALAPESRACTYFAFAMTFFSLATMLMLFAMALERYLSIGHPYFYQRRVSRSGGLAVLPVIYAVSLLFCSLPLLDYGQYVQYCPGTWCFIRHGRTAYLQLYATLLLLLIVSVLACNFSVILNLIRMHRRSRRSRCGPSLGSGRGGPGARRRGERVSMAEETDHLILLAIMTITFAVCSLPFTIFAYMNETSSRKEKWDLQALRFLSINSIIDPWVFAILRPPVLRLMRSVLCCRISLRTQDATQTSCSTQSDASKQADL
observation.type: Ki

>>> reading("CCCCC1(C(O)CCCN2CC[C@@H](Cl)[C@@H]2CCc2ccc(C(=O)O)cc2)CCC1 (stereo in doubt) [Example 11]")
"3.5 µM"
